System: UACC-257 melanoma
ASSAY OVERVIEW: NCI tumour cell line growth inhibition, 48 h
Entries annotated with measured TGI

CHEMICAL SMILES	ASSAY RESULT
O=C1C=C/C(=N\N=C(c2ccccc2)c2ccccc2)O1	> 10 µM
O=C(O)CCNc1ncnc2nc[nH]c12	> 100 µM

// below: TGI requested for another molecule
So what does the record say about TGI for Cc1c(/C=N\NC(=S)NCCNC(=S)N/N=C\c2c(C)n(C)n(-c3ccccc3)c2=O)c(=O)n(-c2ccccc2)n1C ? > 100 µM

====

Entries annotated with measured GI50
Test system: OVCAR-5 ovarian
ASSAY OVERVIEW: NCI tumour cell line growth inhibition, 48 h

Past entries and their recorded results:
CHEMICAL SMILES	GI50
COc1cc(Cl)cc(-c2nn(-c3cccc(NC(=O)c4ccc(N5CCOCC5)c(C(F)(F)F)c4)c3)cc2-c2ccncc2)c1	32.5 µM
Cc1cc(N[C@@H]2CCC[C@H](Nc3ccnc4cc(Cl)ccc34)C2)nc(N2CCCCCC2)n1	2.06 µM
COc1ccc(-c2ccc(=O)oc2C#Cc2cc(OC)c(OC)c(OC)c2)cc1O	2.49 µM

Item: C[C@@H]1C[C@@H]([C@@H](CC2CC(=O)NC(=O)C2)OC(=O)CC(=O)c2ccccc2)C(=O)[C@@H](C)C1 Test system: OVCAR-5 ovarian Read-out: GI50 Value: ? 0.662 µM

Item: COC(=O)c1c2c(c(C)[n+]([O-])c1C)C(=O)C=C(NCc1ccc(F)cc1)C2=O Test system: OVCAR-5 ovarian Read-out: GI50 Value: ? 1.39 µM

Item: CC(C)(/C=C(\C#N)C(=O)N1CCC[C@@H](n2nc(-c3ccc(Oc4ccccc4)cc3F)c3c(N)ncnc32)C1)N1CCN(C2COC2)CC1 Test system: OVCAR-5 ovarian Read-out: GI50 Value: ? 11.3 µM

Item: CCCC(=O)Nc1cn(COC)c(C(=O)N2C[C@@H]3C[C@]34C2=CC(=O)c2[nH]cc(C)c24)n1 Test system: OVCAR-5 ovarian Read-out: GI50 Value: ? 3.3 µM

Item: CNCCOC(=O)/C=C1\CC[C@H]2[C@@H]([C@@H](O)C(=O)[C@@H]3[C@]2(C)CC[C@H](O)[C@]3(C)C(=O)OC)[C@H]1C Test system: OVCAR-5 ovarian Read-out: GI50 Value: ? 1.18 µM

Item: COc1cnc2c(c1)C(=O)c1c-2n(CCCNC2=NCCS2)c(=O)c2cc([N+](=O)[O-])ccc12 Test system: OVCAR-5 ovarian Read-out: GI50 Value: ? 1.04 µM

Item: O=C(Cc1ccc(F)c(Cl)c1)Nc1cc(C2(C(F)(F)F)CC2)nn1CC1CCCCC1 Test system: OVCAR-5 ovarian Read-out: GI50 Value: ? 4.44 µM

Item: CCC[CH2][Sn]([CH2]CCC)([O]C(=O)c1ccc(OC)c(OC)c1OC)[O][Sn]([CH2]CCC)([CH2]CCC)[O]C(=O)c1ccc(OC)c(OC)c1OC Test system: OVCAR-5 ovarian Read-out: GI50 Value: ? 1.52 µM

Item: COc1cc(N(CCC#N)CCC#N)ccc1/C(N=Nc1ccc(Cl)cc1)=N/NC(=O)c1cc(Br)ccc1O Test system: OVCAR-5 ovarian Read-out: GI50 Value: ? > 150 µg/mL
